Recorded values, source patent US8163909B2.

Item-by-item account of HLM
assay: Microsomal stability assay, human liver microsomes; conditions: human liver microsomes;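 further: pooled human liver microsomes at 0.25 mg/mL with 1 µM compound and NADPH at 37 °C, pH 7.4, for 30 min, unchanged parent quantified by LC-MS/MS against the 0 min sample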
Record the value in µL/min/mg, omitting the unit from your answer.

COMPOUND: COCC(=O)N[C@@H](Cc1ccc(F)c(F)c1)[C@H](O)CN[C@H]1CC(C)(C)Oc2ncc(CC(C)(C)C)cc21 [compound 676]
HLM / µL/min/mg: 463

COMPOUND: CO[C@H](C)C(=O)N[C@@H](Cc1cc(F)cc(-c2nccs2)c1)[C@H](O)CN[C@H]1CC2(CCC2)Oc2ncc(CC(C)(C)C)cc21 [compound 738]
HLM / µL/min/mg: 50

COMPOUND: COCC(=O)N[C@@H](Cc1cc(F)cc(F)c1)[C@H](O)CN[C@H]1CC(C)(C)Oc2c1cc(Br)c1c2OCO1 [compound 746]
HLM / µL/min/mg: 150

COMPOUND: COCC(=O)N[C@@H](Cc1cc(F)cc(-c2nccs2)c1)[C@H](O)CN[C@H]1CC2(CCC2)Oc2ncc(CC(C)C)cc21 [Example 695]
HLM / µL/min/mg: 77

COMPOUND: CC(=O)N[C@@H](Cc1ccc(F)c(-c2cccnc2)c1)[C@H](O)CN[C@H]1CC2(CCC2)Oc2ccc(CC(C)(C)C)cc21 [compound 648]
HLM / µL/min/mg: 551

COMPOUND: CO[C@H](C)C(=O)N[C@@H](Cc1ccc2c(c1)OCO2)[C@H](O)CN[C@H]1CC2(CCC2)Oc2c1cc(CC(C)C)nc2-c1ccncc1 [compound 670]
HLM / µL/min/mg: 40

COMPOUND: CC(=O)N[C@@H](Cc1ccc(F)cc1)[C@H](O)CN[C@H]1CC2(CCC2)Oc2c1cc(CC(C)(C)C)nc2Nc1ccccc1 [compound 610]
HLM / µL/min/mg: 102

COMPOUND: COCC(=O)N[C@@H](Cc1cc(F)cc(F)c1)[C@H](O)CN[C@H]1CC2(CCC2)Oc2c1cc(CC(C)C)nc2-c1ccncc1 [compound 682]
HLM / µL/min/mg: 34

Could you share which HLM value was measured for COCC(=O)N[C@@H](Cc1cc(F)cc(-c2nccs2)c1)[C@H](O)CN[C@H]1CC2(CCC2)Oc2ncc(CC(C)(C)F)cc21 [Example 724] ?
45

Item under review: C#Cc1cc2c(c(-n3ccnc3)c1)OC1(CCC1)C[C@@H]2NC[C@@H](O)[C@H](Cc1cc(F)cc(F)c1)NC(=O)COC [compound 689] . Reported HLM?
18.5

Dear colleague, I am looking for the recorded HLM of the following compound: CC(=O)N[C@@H](Cc1cccc(-n2ccnc2)c1)[C@H](O)CN[C@H]1CC2(CCC2)Oc2ncc(CC(C)(C)C)cc21 [compound 615]
59

GET /values?readout=HLM&item= CC(=O)N[C@@H](Cc1cccc(F)c1)[C@H](O)CN[C@H]1CC2(CCC2)Oc2c(-c3ccncc3)cc(Cl)cc21 [compound 595]
147

Item COCC(=O)N[C@@H](Cc1cc(F)cc(F)c1)[C@H](O)CN[C@H]1CC2(CCC2)Oc2c1cc(C1CC1)cc2-n1ccnc1 [compound 706] has what recorded HLM?
41

---

test: Microsomal stability assay, rat liver microsomes; details: rat liver microsomal data;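 further: rat liver microsomes (0.25 mg/mL) with about 1 µM compound plus 1 mM NADPH, pH 7.4, 37 °C for 30 min, parent left measured by LC-MS/MS against 0 min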
METRIC: RLM (µL/min/mg)
Respond numerically; units are µL/min/mg and should not be typed.

In the examples that follow, each entry is paired with its recorded RLM.
COMPOUND: CC(C)Cc1cnc2c(c1)[C@@H](NC[C@H](O)[C@@H](Cc1cccc(-c3nccs3)c1)NC(=O)[C@@H]1CCCO1)CC1(CCC1)O2 [compound 796]
EXPERIMENTAL RESULT: 58

COMPOUND: C#Cc1cccc(C[C@H](NC(=O)[C@H]2CCCO2)[C@H](O)CN[C@H]2CC3(CCC3)Oc3ncc(CC(C)(C)C)cc32)c1 [compound 896]
EXPERIMENTAL RESULT: 73

Now examine the next entry.
Requested field: RLM. Item: CC(=O)N[C@@H](C[C@H]1CCOC1)[C@H](O)CN[C@H]1CC2(CCC2)Oc2ncc(CC(C)(C)C)cc21 [compound 469]
35
